For each record, write down the corresponding IC50.
ASSAY_TARGET: human GCGR (full-length glucagon receptor of 477 amino acids) (human, UniProt P47871 26-477)
Sequence (P47871 26-477 limits assumed): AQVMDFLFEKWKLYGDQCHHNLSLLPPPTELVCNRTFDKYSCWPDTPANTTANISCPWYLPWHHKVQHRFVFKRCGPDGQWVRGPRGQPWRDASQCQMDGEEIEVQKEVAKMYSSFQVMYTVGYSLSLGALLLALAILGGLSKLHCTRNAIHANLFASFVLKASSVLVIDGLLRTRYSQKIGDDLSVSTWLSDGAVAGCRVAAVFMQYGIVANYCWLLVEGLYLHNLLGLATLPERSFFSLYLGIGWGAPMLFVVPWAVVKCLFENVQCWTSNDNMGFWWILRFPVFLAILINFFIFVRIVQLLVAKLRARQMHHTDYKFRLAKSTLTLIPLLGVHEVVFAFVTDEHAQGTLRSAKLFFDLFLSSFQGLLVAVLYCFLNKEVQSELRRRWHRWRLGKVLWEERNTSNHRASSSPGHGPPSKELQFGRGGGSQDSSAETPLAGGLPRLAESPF
TEST_PROTOCOL: cell-based or functional assay

Returns the measured IC50 for the input binder. Input: ch1817 (antibody, human IgG4 S228P, kappa, F234A L235A, V domains shown, IgG4-AA / kappa chimeric antibody) VH: EVQLVESGGDLVQPGRSMKLSCAASGFTFSNYYMAWVRQAPTKGLEWVASISTGGVNTYYRDSVKGRFTISRDNAKNNLYLQMDSLRSEETATYYCARHTTADYFYGIYFALDAWGQGTSVTVSS VL: QFTLTQPKSVSGSLRSTITIPCERSSGDIGDSYVNWYQQHLGRPPLNVIYADVQRPSEVSDRFSGSIDSSSNSASLTITNLQMDDEADYFCQSYDTNIDIIFGGGTKLTVLR
59.8 nM

Now this one: ch1805 (antibody, human IgG4 S228P, kappa, F234A L235A, V domains shown, IgG4-AA / kappa chimeric antibody; also called chimeric antibody of clone 1805) VH: EVQLQQSGPELVKPGASVKIPCKTSGYTFTDYNMDWVKQSHGRSLEWIGSIDPDNGGTIYNQKFKGKATLTVDKSSSTAYMELRSLTSEDTAVYYCTRDYYGSSSWFAYWGQGTLVTVSA VL: DVVMTQSPATLSVTPGDRVSLSCRASQSISDYLHWYQQKSHESPRLLIKYASQSISGIPSRFSGSGSGSDFTLSINSVEPEDVGVYYCQNGHSFPYTFGGGTKLEIKR
95 nM

Then ch1822 (antibody, human IgG4 S228P, kappa, F234A L235A, V domains shown, IgG4-AA / kappa chimeric antibody) VH: EVRLVESGGDFVQPGRSVKLSCAASGFTFSNYYMAWVRQAPTKGLEWVGSISTGGVNTYYRDSVKGRFTISRDNAESTLYLQMDSLRSEETATYYCARHTTPDYHYGIYFAMDAWGQGTSVTVSS VL: QVTLTQPKSVSGSLRSTITIPCERSSGDIGESYVNWYQQHLGRPPINVIYADDQRPSEVSDRFSGSIDSSSNSASLTITNLQVDDEADYFCQSYDSSIDIFFGGGTKLTVLR ?
62.5 nM

Okay, and ch1810 (antibody, human IgG4 S228P, kappa, F234A L235A, V domains shown) VH: QVQLQQSGTELARPGTSVTLSCKASGYTFTNYAISWVKQRTGQGLEWIGEIYPTSGNTYYNEKFKGKATLTADRSSKTMYMELRSLTSVDSAVYFCASGVITTVVSTDYFDYWGQGSPLTVSS VL: DIQMTQIPSSLSVSLGDRVTISCRASLDISNYLNWYQLKPDGTVKLLIYYTSTLHSGVSSRFSGSGSGTEYSLTISNLEQEDIATYFCQQGNMVPYTFGGGTKLEIKR ?
72.5 nM

Would you mind doing ch1808 (antibody, human IgG4 S228P, kappa, F234A L235A, V domains shown, IgG4-AA / kappa chimeric antibody) VH: QVQLQQSGAELARPGASVKLSCKASGDTFTTNGISWVKQRIGQGLEWIGEIYPRSGNTYYNENFKGKATLTADKSSTTAYMELRRLTSEDSAVYFCARSITSVIGADYFDYWGQGTTLTVSS VL: DIQMTQTTSSLSASLGDRVTISCRASQDISNYLNWYQKKPDGTVKLLIYYSSTLHSGVPSRFSGSGSGTDYSLTISNLEQEDIATYFCQQGNTFPWTFGGGTKLEIKR as well?
105 nM

Param item: ch1803 (antibody, human IgG4 S228P, kappa, F234A L235A, V domains shown, IgG4-AA / kappa chimeric antibody) VH: QFQLHQSGAELVKPGASVKLSCKATGYTFTDYWIEWVKQRPGHGLEWIGEILPGSTYTNYNEKFKGRATFTAEPSSSSAYMQLSGLTTEDSAIYYCSRGLSTLMAVDYFDYWGQGTTLTVSS VL: DIQMTQTTSSLSASLGDRVTINCRASQDISNYLNWYQQKPDGTVKLLIYYSSTLHSGVPSRFSGSGSGTDYSLTISHLEQEDIATYFCQQTNIFPWTFGGGTKLEIRT
79.3 nM
